Source listed as patent US5502035A.

target: LHRH (Rattus norvegicus); construct: endogenous in cells; host or cells: rat pituitary cells (own knowledge of the cited Haviv 1989 method); experiment: in vitro test for LHRH antagonist potency (pA2); format: cell-based; details: negative logarithm of the antagonist concentration required to shift the response curve produced by the agonist leuprolide to two-fold higher concentration
Sequence (P30969 whole entry): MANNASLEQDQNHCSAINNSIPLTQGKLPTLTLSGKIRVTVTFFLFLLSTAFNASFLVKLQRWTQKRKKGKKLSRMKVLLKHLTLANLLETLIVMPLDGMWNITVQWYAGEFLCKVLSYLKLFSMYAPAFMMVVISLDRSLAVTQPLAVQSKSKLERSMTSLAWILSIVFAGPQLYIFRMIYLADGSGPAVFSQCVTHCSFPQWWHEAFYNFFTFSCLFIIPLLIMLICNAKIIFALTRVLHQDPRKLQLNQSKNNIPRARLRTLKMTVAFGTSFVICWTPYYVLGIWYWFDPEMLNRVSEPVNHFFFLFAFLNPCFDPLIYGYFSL
Non-standard residues stand in square brackets, D forms with d. Residues, ends and D or L forms follow the SMILES beside them. *: point of attachment. dPhe(4-Cl) = N[C@H](Cc1ccc(Cl)cc1)C(=O)O; d2Nal = N[C@H](Cc1ccc2ccccc2c1)C(=O)O; Lys(iPr) = CC(C)NCCCC[C@H](N)C(=O)O; NMeY = CN[C@@H](Cc1ccc(O)cc1)C(=O)O; d3Pal = N[C@H](Cc1cccnc1)C(=O)O; Nicotinoyl = O=C(c1cccnc1)*; 2Furoyl = O=C(c1ccco1)*; X6 = O=C(c1ccoc1)*; azaGly = NNC(=O)O
Reported Kb values are given for each entry in this list.

| compound | measured.target | Kb, pM |
| --- | --- | --- |
| CC(C)C[C@H](NC(=O)[C@@H](CCCCNC(=O)c1cccnc1)NC(=O)[C@H](Cc1ccc(O)cc1)N(C)C(=O)[C@H](CO)NC(=O)[C@@H](Cc1cccnc1)NC(=O)[C@@H](Cc1ccc(Cl)cc1)NC(=O)[C@@H](Cc1ccc2ccccc2c1)NC(=O)c1ccoc1)C(=O)N[C@@H](CCCCNC(C)C)C(=O)N1CCC[C@H]1C(=O)N[C@H](C)C(N)=O [Example 72b] (X6-[d2Nal][dPhe(4-Cl)][d3Pal]S[NMeY][dK](Nicotinoyl)L[Lys(iPr)]P[dA]-NH2) | LHRH (Rattus norvegicus) | 85.1 |
| CC(C)C[C@H](NC(=O)[C@@H](CCCCNC(=O)c1cccnc1)NC(=O)[C@H](Cc1ccc(O)cc1)N(C)C(=O)[C@H](CO)NC(=O)[C@@H](Cc1cccnc1)NC(=O)[C@@H](Cc1ccc(Cl)cc1)NC(=O)[C@@H](Cc1ccc2ccccc2c1)NC(=O)NNC(=O)c1ccco1)C(=O)N[C@@H](CCCCNC(C)C)C(=O)N1CCC[C@H]1C(=O)N[C@H](C)C(N)=O [Example 37a] (2Furoyl-[azaGly][d2Nal][dPhe(4-Cl)][d3Pal]S[NMeY][dK](Nicotinoyl)L[Lys(iPr)]P[dA]-NH2) | LHRH (Rattus norvegicus) | 6.31 |

###

biological target: LHRH (Rattus norvegicus); construct: endogenous in cells; host or cells: rat pituitary cells (own knowledge of the cited Haviv 1989 method); experiment: in vitro test for LHRH antagonist potency (pA2); assay type: cell-based; details: negative logarithm of the antagonist concentration required to shift the response curve produced by the agonist leuprolide to two-fold higher concentration
Non-standard residues stand in square brackets, D forms with d. Residues, ends and D or L forms follow the SMILES beside them. *: point of attachment. Shikimoyl = O=C(C1=C[C@@H](O)[C@@H](O)[C@H](O)C1)*; dPhe(4-Cl) = N[C@H](Cc1ccc(Cl)cc1)C(=O)O; d2Nal = N[C@H](Cc1ccc2ccccc2c1)C(=O)O; NMeY = CN[C@@H](Cc1ccc(O)cc1)C(=O)O; hArg = N=C(N)NCCCC[C@H](N)C(=O)O; d3Pal = N[C@H](Cc1cccnc1)C(=O)O; Nicotinoyl = O=C(c1cccnc1)*
measured.parameter: Kb (nM)

| molecule | value.reported |
| --- | --- |
| CC(C)C[C@H](NC(=O)[C@@H](CCCCNC(=O)c1cccnc1)NC(=O)[C@H](Cc1ccc(O)cc1)N(C)C(=O)[C@H](CO)NC(=O)[C@@H](Cc1cccnc1)NC(=O)[C@@H](Cc1ccc(Cl)cc1)NC(=O)[C@@H](Cc1ccc2ccccc2c1)NC(=O)CNC(=O)C1=C[C@@H](O)[C@@H](O)[C@H](O)C1)C(=O)N[C@@H](CCCNC(=N)N)C(=O)N1CCC[C@H]1C(=O)N[C@H](C)C(N)=O [Example 15a] (Shikimoyl-G[d2Nal][dPhe(4-Cl)][d3Pal]S[NMeY][dK](Nicotinoyl)LRP[dA]-NH2) | 0.0631 |
| CC(C)C[C@H](NC(=O)[C@@H](CCCCNC(=O)C1=C[C@@H](O)[C@@H](O)[C@H](O)C1)NC(=O)[C@H](Cc1ccc(O)cc1)N(C)C(=O)[C@H](CO)NC(=O)[C@@H](Cc1cccnc1)NC(=O)[C@@H](Cc1ccc(Cl)cc1)NC(=O)[C@@H](Cc1ccc2ccccc2c1)NC(=O)CNC(=O)C1=C[C@@H](O)[C@@H](O)[C@H](O)C1)C(=O)N[C@@H](CCCCNC(=N)N)C(=O)N1CCC[C@H]1C(=O)N[C@H](C)C(N)=O [Example 25d] (Shikimoyl-G[d2Nal][dPhe(4-Cl)][d3Pal]S[NMeY][dK](Shikimoyl)L[hArg]P[dA]-NH2) | 0.0339 |
